- METHOD NOTES: ACEA_AR_agonist_AUC_viability: ACEA Biosciences xCELLigence Real-Time Cell Analysis on Androgen Receptor Agonism for Viability (AID 2283775)
Results filed as inconclusive are left out. Activity calls are given as the source filed them. The calls were made as follows: active = hit-call score of the fitted dose curve at least 0.9, where 1 is the maximum; inconclusive = response in the unintended direction; inactive = score below 0.9.
// one of T for active, F for inactive, no free text

CCCCCCC(=O)c1ccccc1
F
COc1ccccc1N=Nc1c(S(=O)(=O)O)cc2cc(S(=O)(=O)O)cc(NC(C)=O)c2c1O
F
CCCCCCCCCCCCCC(=O)OCC(O)CO (stereo not given)
F
O=C1NC2NC(=O)NC2N1 (stereo not given)
F

What did the test return for "O=[N+]([O-])c1ccc(O)cc1C(F)(F)F" ?
T

###

- METHOD NOTES: CCTE_Shafer_MEA_dev_network_spike_number: CCTE's Neural Network Formation Assay for Number of Network Spikes, Shafer Lab (AID 2284048);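 also: synchronized bursts across electrodes counted on days 5 7 9 12 and integrated as AUC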
Activity calls are given as the source filed them. How the source made its calls: active means hit-call score of the fitted dose curve at least 0.9, where 1 is the maximum; inactive means score below 0.9.
OBSERVATION TYPE: outcome

As a guide, the following entries are already answered.
CS(=O)(=O)OCCCCOS(C)(=O)=O
inactive
COCCc1ccc(OCC(O)CNC(C)C)cc1 (stereo not given)
inactive
FC(F)(F)COCC(F)(F)F
inactive
CN(C)CCOC(C)(c1ccccc1)c1ccccn1 (stereo not given)
inactive

Moving on to another compound below.
Lookup result for "COCCOCCOCCO" ; measured outcome: inactive

###

- MEASURED ON: Transcriptional activator Myb (Homo sapiens)
- METHOD NOTES: ATG_Myb_CIS: Attagene CIS-FACTORIAL HepG2 Assay for human Myeloblastosis (Myb) Proto-Oncogene Transcription Factor (AID 2282986)
- CONDITION LABEL: HepG2 Attagene CIS-FACTORIAL Myb reporter transcription; actives raise or lower the signal
Activity calls are given as the source filed them. Rule for the calls: active = hit-call score of the fitted dose curve at least 0.9, where 1 is the maximum; inactive = score below 0.9.
Could you please pick one outcome from this set? active, inactive

Known results for compounds:
CCCC(C)C(O)CC (centres undefined)
inactive
CS(C)=O
inactive
CC1(C)CCC[C@]2(C)[C@H]3CCO[C@]3(C)CC[C@@H]12
inactive
CCCCCc1ccco1
inactive
CCc1ccc(O)cc1
inactive
CCOC(=O)C(C#N)=C(c1ccccc1)c1ccccc1
inactive
C=C(C)[C@@H]1CC=C(C)C(=O)C1
inactive
CCCCCCCCc1ccc(S(=O)(=O)O)cc1
active
CS(=O)(=O)OCCCCOS(C)(=O)=O
inactive
CCCCCCCCCCCCN1CCCCCC1=O
inactive

Dear all, I need the recorded test outcome for "CC(C)(C)CC(C)(C)c1ccc(OCCOCC[N+](C)(C)Cc2ccccc2)cc1" , thank you.
inactive

Give the logged outcome of this assay for the following compound: "C=CCOC(=O)CCCCCC"
inactive

Given "FC(F)(F)COCC(F)(F)F" , state the outcome it received in this test.
inactive

Hello, I am checking results. What call was entered for Cc1c(OCC(F)(F)F)ccnc1CS(=O)c1nc2ccccc2[nH]1 (centres undefined) ?
inactive

###

- MEASURED ON: Nuclear receptor subfamily 1 group I member 2 (Homo sapiens)
- METHOD NOTES: ATG_PXR_TRANS: Attagene TRANS-FACTORIAL HepG2 Assay for human Pregnane X Receptor (PXR) (AID 2283008)
- Protocol: ATG_TRANS is a cell-based, multiplexed-readout assay that uses HepG2, a human liver cell line, with measurements taken at 24 hours after chemical dosing in a 24-well plate.ATG_PXR_TRANS is one of 30 assay component(s) measured or calculated from the ATG_TRANS assay. […] This assay endpoint, ATG_PXR_TRANS, was analyzed in the positive analysis fitting direction relative to DMSO as the negative control and baseline of activity. […]
Inconclusive results are not listed. Active and inactive are the calls of the source. The calls were made as follows: active = hit-call score of the fitted dose curve at least 0.9, where 1 is the maximum; inconclusive = response in the unintended direction; inactive = score below 0.9.
Field 'call' accepts True (active), False (inactive)

CCCC[P+](CCCC)(CCCC)CCCC
False
CCOc1ccc(NC(=O)CC(C)O)cc1 (stereo unspecified)
False
C[N+](C)(C)CCCCCC[N+](C)(C)C
False
CCCC(=O)OCCc1ccccc1
False
CCCC(=O)C(CC)Sc1ccoc1C (stereo unspecified)
True
C=C(CC(=O)O)C(=O)O
False
OCc1cccc(Oc2ccccc2)c1
False
CC(C=O)Cc1ccc(C(C)(C)C)cc1 (stereo unspecified)
True

Recorded call for C=CC(C)(O)CCC=C(C)C (stereo unspecified) ?
False

Answer briefly: the call reported for "CCCCC(CC)(CO)CO" in this assay.
False

Tell me the recorded outcome of this test for "Clc1cc(Cl)c(-c2c(Cl)c(Cl)cc(Cl)c2Cl)cc1Cl" .
True

Identify the outcome logged in this assay for the molecule shown: "CC(=O)OCCCc1ccccc1"
False

###

- METHOD NOTES: ATG_VDRE_CIS: Attagene CIS-FACTORIAL HepG2 Assay for human Vitamin D Receptor Element (VDRE) (AID 2282968)
- CONDITION LABEL: HepG2 VDRE cis-reporter transcription, actives raise or lower the signal
The source made the active and inactive calls. The calls were made as follows: active = hit-call score of the fitted dose curve at least 0.9, where 1 is the maximum; inactive = score below 0.9.
Lab note: assign the record to one of 1.0 (active), 0.0 (inactive)

Field: example entries. Status: answers known.
C=CC(=O)OCCC#N
1.0
CCOC(=O)[C@@H](C)Oc1ccc(Oc2nc3ccc(Cl)cc3o2)cc1
0.0
O=C(CS)OCCOC(=O)CS
0.0
CCCCCCC(CO)CCCC (stereo not drawn)
0.0
C=C(C)CNCC
0.0

Each compound tested received a call. Report the one for "CCCCCCCCCCCCS(=O)(=O)Cl" .
0.0

# outcome recorded in this test, key = "COc1ccc(COC(C)=O)cc1"
0.0

What outcome does the record of this test show for "O=C1c2ccccc2C(=O)c2c(O)ccc(O)c21" ?
0.0

Identify the outcome logged in this assay for the compound shown: "CC1=NN(c2ccc(S(=O)(=O)O)cc2)C(=O)C1"
0.0

Assay outcome for "COc1ccccc1N=Nc1c(S(=O)(=O)O)cc2cc(S(=O)(=O)O)cc(NC(C)=O)c2c1O" : what was it?
0.0

Please share the test call associated with CC(C=O)Cc1ccc(C(C)(C)C)cc1 (stereo not drawn) .
0.0

Entry "CCOC(=O)COC(=O)c1cc(Oc2ccc(C(F)(F)F)cc2Cl)ccc1[N+](=O)[O-]" : call = ?
1.0

For this compound, state the assay outcome: "C=C(C)C(=O)OCCOCCOCCOC(=O)C(=C)C"
0.0

###

- MEASURED ON: Cellular tumor antigen p53 (Homo sapiens) (UniProt P04637)
- Sequence (P04637 whole entry, looked up): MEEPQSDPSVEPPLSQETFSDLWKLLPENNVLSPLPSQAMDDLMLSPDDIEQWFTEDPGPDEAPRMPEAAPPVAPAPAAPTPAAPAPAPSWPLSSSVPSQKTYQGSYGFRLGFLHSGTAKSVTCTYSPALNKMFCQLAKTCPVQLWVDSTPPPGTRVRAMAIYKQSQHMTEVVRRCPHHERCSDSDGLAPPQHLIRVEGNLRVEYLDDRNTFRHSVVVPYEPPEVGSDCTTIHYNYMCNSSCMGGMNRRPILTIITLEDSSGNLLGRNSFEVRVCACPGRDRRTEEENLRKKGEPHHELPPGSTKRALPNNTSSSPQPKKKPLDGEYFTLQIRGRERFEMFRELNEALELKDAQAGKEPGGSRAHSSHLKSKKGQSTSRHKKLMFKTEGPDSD
- METHOD NOTES: TOX21_p53_BLA_p2_ratio: Tox21 HCT-116 p53 Agonism Beta-lactamase Assay, Ratio, Phase 2 (AID 2283592)
Inconclusive results are not listed. The source made the active and inactive calls. Rule for the calls: active = hit-call score of the fitted dose curve at least 0.9, where 1 is the maximum; inconclusive = response in the unintended direction; inactive = score below 0.9.
OBSERVATION TYPE: outcome

Cc1[nH]c(=O)c(C#N)cc1-c1ccncc1
inactive
O=C(O)c1ccc(O)cc1
inactive
Brc1ccc(Br)c(Br)c1
inactive
Nc1c(Cl)cc(Cl)cc1[N+](=O)[O-]
inactive
CCCCCCCCCCCC(=O)OC[C@@H](O)[C@H]1OC[C@H](O)[C@H]1O
inactive
CCCCC(CC)C(=O)OC(C)C (stereo not given)
inactive

Below are 6 compounds. Give each one its outcome.
1. NC1CCCCC1N (stereo not given)
2. Cc1c(OCC(F)(F)F)ccnc1CS(=O)c1nc2ccccc2[nH]1 (stereo not given)
3. CCCC(C)=O
4. CCC(C)=O
5. CCC(C)S (stereo not given)
6. O=C1OC(=O)c2c(Cl)c(Cl)c(Cl)c(Cl)c21

1. inactive
2. inactive
3. inactive
4. inactive
5. inactive
6. inactive

###

- MEASURED ON: Hypoxia-inducible factor 1-alpha (Homo sapiens) (UniProt Q16665)
- Sequence (Q16665 whole entry, looked up): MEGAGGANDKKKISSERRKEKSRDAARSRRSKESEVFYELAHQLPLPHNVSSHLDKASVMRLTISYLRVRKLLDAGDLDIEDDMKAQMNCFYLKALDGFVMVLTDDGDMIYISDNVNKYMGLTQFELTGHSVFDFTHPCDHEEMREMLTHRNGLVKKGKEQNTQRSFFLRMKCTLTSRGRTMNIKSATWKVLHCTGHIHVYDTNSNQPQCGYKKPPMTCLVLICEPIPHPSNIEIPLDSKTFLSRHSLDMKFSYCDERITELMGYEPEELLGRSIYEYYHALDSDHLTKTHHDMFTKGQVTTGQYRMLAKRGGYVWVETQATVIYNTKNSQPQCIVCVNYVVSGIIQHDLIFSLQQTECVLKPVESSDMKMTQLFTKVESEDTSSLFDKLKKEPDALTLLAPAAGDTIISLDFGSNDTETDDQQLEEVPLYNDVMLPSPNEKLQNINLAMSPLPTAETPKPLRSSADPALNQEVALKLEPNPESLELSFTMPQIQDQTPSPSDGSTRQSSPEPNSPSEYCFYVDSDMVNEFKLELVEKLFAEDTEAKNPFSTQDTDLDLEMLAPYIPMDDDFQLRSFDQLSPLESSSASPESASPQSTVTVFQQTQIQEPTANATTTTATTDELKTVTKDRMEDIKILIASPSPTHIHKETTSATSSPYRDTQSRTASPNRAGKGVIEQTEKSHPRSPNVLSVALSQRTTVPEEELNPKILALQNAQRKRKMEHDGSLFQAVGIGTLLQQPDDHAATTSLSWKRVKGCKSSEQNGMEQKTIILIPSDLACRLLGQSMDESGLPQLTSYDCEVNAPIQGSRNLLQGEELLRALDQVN
- METHOD NOTES: ATG_HIF1a_CIS: Attagene CIS-FACTORIAL HepG2 Assay for human Hypoxia Inducible Factor 1 (HIF1A) (AID 2282951)
- CONDITION LABEL: HepG2 Attagene cis-factorial HIF1a reporter transcription; actives raise or lower the signal
Active and inactive are the calls of the source. Rule for the calls: active = hit-call score of the fitted dose curve at least 0.9, where 1 is the maximum; inactive = score below 0.9.
Select the matching outcome among true (1) = active, false (0) = inactive

CCCC(=O)OCCc1ccccc1
false (0)
Cc1c(Cl)cccc1[N+](=O)[O-]
false (0)
Cc1ccc(OC(=O)c2ccccc2O)cc1
false (0)
C=C(C)CNCC
false (0)
CCCOC(=O)c1c(Cl)c(Cl)c(Cl)c(Cl)c1C(=O)OCCC
false (0)
CC(C)(C)C1=CC(=O)C(C(C)(C)C)=CC1=O
true (1)

// return assay outcome for CC(C)CC(C)CC(O)CC(C)C (stereo not drawn)
false (0)

Which outcome was assigned to CCCC(O)C(O)CO (stereo not drawn) in this test?
false (0)

Look up the recorded call for C=C(C)C(=O)OCCOC1CC2CC1C1C=CCC21 (stereo not drawn) in this test.
false (0)

###

- MEASURED ON: X-box-binding protein 1 (Homo sapiens) (UniProt P17861)
- Sequence (P17861 whole entry, looked up): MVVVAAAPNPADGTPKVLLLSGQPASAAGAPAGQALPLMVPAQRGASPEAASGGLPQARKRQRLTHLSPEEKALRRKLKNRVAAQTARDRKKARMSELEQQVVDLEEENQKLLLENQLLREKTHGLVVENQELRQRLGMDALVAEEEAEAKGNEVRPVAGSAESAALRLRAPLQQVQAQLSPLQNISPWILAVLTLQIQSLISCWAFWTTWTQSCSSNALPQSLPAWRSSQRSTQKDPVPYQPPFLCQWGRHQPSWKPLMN
- METHOD NOTES: ATG_Xbp1_CIS: Attagene CIS-FACTORIAL HepG2 Assay for human X-box Binding Protein 1 (XBP1) (AID 2282972)
- CONDITION LABEL: HepG2 XBP1 cis-element reporter, Attagene multiplex; actives raise or lower the signal
Active and inactive are the calls of the source. Rule for the calls: active = hit-call score of the fitted dose curve at least 0.9, where 1 is the maximum; inactive = score below 0.9.
Give your call using only these classes: class 1 (active), class 0 (inactive)

A selection of reference data follows.
CC(C)(C)c1ccc(C(=O)O)cc1
class 0
CCCCCCCCCC(=O)OC
class 0
CCCC(=O)OCCc1ccccc1
class 0
CCCCCC(C)=O
class 0
C=COCCOCCOC=C
class 0

State the result this test recorded for "CCCC[P+](CCCC)(CCCC)CCCC" .
class 0

Please let me know the test result on file for "C/C=C(\C)C(=O)OCCc1ccccc1" .
class 0

Lab log entry: "COC(C)(C)CCO" — outcome as called in the assay?
class 0

Recorded call for "C=CC(=O)OCCCC" ?
class 0

Dear all, I need the recorded test outcome for "CCCCCCOC(=O)C(C)C" , thank you.
class 0

Query: recorded result category for "O=C1CCCC=CCCCCCCCCCC1" in this test
class 1

For "CC(C)Nc1nc(N)nc(Cl)n1" , which call appears in the assay record?
class 0

Could you please tell me the result logged for CCCCC(CC)COC(C)=O (centres undefined) in this assay?
class 0

Kindly provide the recorded test outcome for the following molecule: "Nc1c(Cl)cc(Cl)cc1[N+](=O)[O-]"
class 0

Tell me the recorded outcome of this test for "CC(C)CCOC(=O)c1ccccc1" .
class 0

# lookup: test call for "O=C1OC2(c3ccccc31)c1ccc(O)c(Br)c1Oc1c2ccc(O)c1Br"
class 0

Hey, what did the test say about "Nc1ccc2cc(S(=O)(=O)O)cc(O)c2c1N=Nc1ccccc1C(F)(F)F" ?
class 0

Test call for this molecule, please: "CN1C(=O)c2ccccc2C1=O"
class 0

What was the test verdict on "CCCCCCCC/C=C\CCCCCCCC(=O)OCC" ?
class 0

Please let me know the test result on file for "COC(=O)c1ccc([N+](=O)[O-])cc1" .
class 0

Any idea what this test logged for C=CC(C)(O)CCC=C(C)C (centres undefined) ?
class 0
